Could you please report measured shrunken log2 fold change for the items listed next?
System: Escherichia coli TOP10;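 further: peptides expressed intracellularly from a pBAD plasmid library in pooled LB shake-flask culture, induced with 0.3% L-arabinose, DNA abundance read by NGS, three biological replicates, DESeq2 with apeglm shrinkage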
assay remarks: shrunken log2 fold change of peptide-encoding DNA abundance (4.5 h post-induction vs induction); higher = less antimicrobial activity (less host growth inhibition)
experimental conditions: time post-induction: 4.5 h; library: site-saturation at positions 5, 18, 19, 20
One number for each entry.

# sequence chain, observed value
records = [
    ("RRIRWRPPRLPRPRPRPYVYPRP", 0.0229),
    ("RRIRQRPPRLPRPRPRPWCLPRP", -0.275),
    ("RRIRTRPPRLPRPRPRPATAPRP", 0.362),
    ("RRIRSRPPRLPRPRPRPHRLPRP", -0.288),
    ("RRIRLRPPRLPRPRPRPEDKPRP", -0.0384),
    ("RRIRHRPPRLPRPRPRPSEWPRP", -0.0167),
    ("RRIRARPPRLPRPRPRPVDLPRP", 0.174),
]

Problem: Would you mind telling me what shrunken log2 fold change value was observed for RRIRMRPPRLPRPRPRPQCGPRP ?
Result: 0.096

Attribution: the supplement of paper PMC9112550
